Cited source for all entries: ChEMBL document CHEMBL5352429

assay: Antibacterial activity against Salmonella enterica subsp. enterica serovar Choleraesuis ATCC 13312 incubated overnight by standard microtiter dilution method; assay type: functional
Peptide text beside a SMILES is read from it.
measurement-name: MIC (µg/mL)

molecule | quantitative-result
CC(C)[C@H](N)C(=O)N[C@@H](CCCCN)C(=O)N[C@H](C(=O)N[C@@H](CCCCN)C(=O)N[C@H](C(=O)N[C@@H](CCCCN)C(=O)N[C@@H](CS)C(=O)N[C@H](C(=O)N[C@@H](CCCCN)C(=O)N[C@@H](CO)C(=O)NCC(=O)N[C@@H](CS)C(=O)N[C@@H](CCCCN)C(=O)N[C@H](C(=O)N[C@@H](CCCCN)C(=O)N[C@H](C(=O)N[C@@H](CCCCN)C(=O)N[C@H](C(N)=O)C(C)C)C(C)C)C(C)C)[C@@H](C)O)C(C)C)C(C)C (H-VKVKVKCTKSGCKVKVKV-NH2) | 0.5
